Target or system Plasmepsin II (Plasmodium falciparum, UniProt P46925); recorded quantity log10 of IC50.
Quick note: numbers are log10 of IC50, with nM as the unit.

In the examples that follow, each entry is paired with its recorded log10 of IC50.
[[record]]
compound = "CCCCCc1ccc(C(=O)N(CCN2CCCCC2)Cc2ccc(-c3ccc4c(c3)OCO4)cc2)cc1"
measured_number = 2.52

[[record]]
compound = "CCCCCc1ccc(C(=O)N(CCN(CCCC)CCCC)Cc2ccc(-c3ccccc3)cc2)cc1"
measured_number = 2.16

[[record]]
compound = "CCCCCc1ccc(C(=O)N(CCN(CCCC)CCCC)Cc2ccc(-c3cncnc3)cc2)cc1"
measured_number = 2.73

[[record]]
compound = "CCCCCc1ccc(C(=O)N(CCN(CCCC)CCCC)Cc2ccc(N3CCSCC3)cc2)cc1"
measured_number = 2.27

[[record]]
compound = "CCCCCc1ccc(C(=O)N(CCN(CCCC)CCCC)Cc2ccc(-c3ccncc3)cn2)cc1"
measured_number = 3.66

[[record]]
compound = "CCCCCc1ccc(C(=O)N(CCN(CCCC)CCCC)Cc2ccc(NC(=O)C3CCCNC3)cc2)cc1 (stereo not drawn)"
measured_number = 2.31

[[record]]
compound = "CCCCCc1ccc(C(=O)N(CCN(CCCC)CCCC)Cc2ccc(-c3ccc(CC(=O)N4CCOCC4)cc3)cc2)cc1"
measured_number = 1.87

[[record]]
compound = "CCCCCc1ccc(C(=O)N(CCN(CCCC)CCCC)Cc2ccc(N(C)c3ccncc3)cc2)cc1"
measured_number = 3.48

[[record]]
compound = "CCCCCc1ccc(C(=O)N(CCN(CCCC)CCCC)Cc2ccc(N(C)Cc3ccccc3)cc2)cc1"
measured_number = 2.46

[[record]]
compound = "CCCCCc1ccc(C(=O)N(CCN(CC)CC)Cc2ccc(-c3ccc4c(c3)OCO4)cc2)cc1"
measured_number = 3.18


Supply log10 of IC50 measured with Plasmepsin II (Plasmodium falciparum, UniProt P46925) for `CCCCCc1ccc(C(=O)N(CCN(CCCC)CCCC)Cc2ccc(-c3ccc4c(c3)OCO4)cc2)cc1` .
Sequence (P46925 whole entry): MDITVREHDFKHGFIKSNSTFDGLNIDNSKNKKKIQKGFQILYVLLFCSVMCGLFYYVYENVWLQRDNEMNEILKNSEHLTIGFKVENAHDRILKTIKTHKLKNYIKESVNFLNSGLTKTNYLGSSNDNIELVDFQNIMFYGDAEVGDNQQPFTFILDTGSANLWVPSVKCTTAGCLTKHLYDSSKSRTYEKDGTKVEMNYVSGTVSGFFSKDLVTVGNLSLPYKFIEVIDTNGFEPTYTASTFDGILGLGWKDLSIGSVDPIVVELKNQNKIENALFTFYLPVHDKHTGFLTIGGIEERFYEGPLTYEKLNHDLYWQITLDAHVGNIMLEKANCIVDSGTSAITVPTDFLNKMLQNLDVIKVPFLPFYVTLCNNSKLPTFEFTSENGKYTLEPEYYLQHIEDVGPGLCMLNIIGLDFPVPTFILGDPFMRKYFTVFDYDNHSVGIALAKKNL
2.00

Enter log10 of IC50 (test system Plasmepsin II (Plasmodium falciparum, UniProt P46925)) for `CCCCCc1ccc(C(=O)N(CCN(CCCC)CCCC)Cc2ccc(-c3cncnc3)nc2)cc1`
3.35

Check Plasmepsin II (Plasmodium falciparum, UniProt P46925) data and give log10 of IC50 for `CCCCCc1ccc(C(=O)N(CCN(CCCC)CCCC)Cc2ccc(-c3ccc(C(=O)N4CCSCC4)cc3)cc2)cc1` .
1.75

Give measured log10 of IC50 for `CCCCCc1ccc(C(=O)N(CCN(CCCC)CCCC)Cc2ccc(-c3ccc(OCCO)cc3)cc2)cc1` (Plasmepsin II (Plasmodium falciparum, UniProt P46925)).
2.71
